assay: Partition coefficient, log P at pH 7.4; assay type: physicochemical; settings: octanol/water

smiles_notation	logD
CC/N=c1/cc2sc3cc(N(CC)CC)ccc3nc-2c2ccccc12.Cl	2.76
CC/N=c1/cc2[se]c3cc(N(CC)CC)ccc3nc-2c2ccccc12.Cl	2.08
CC/N=c1/cc2oc3cc(N(CC)CC)ccc3nc-2c2ccccc12.Cl	2.69
